Source: paper PMC6687188

// each record: one item and its MEAN CpLDH INHIBITION (%) for recombinant CpLDH protein (Cryptosporidium parvum, UniProt Q9GT92, F198L/K295E/R251K)
State the answer as a number, implicitly in %.

In the examples that follow, each entry is paired with its recorded MEAN CpLDH INHIBITION (%).
NS(=O)(=O)c1nc2nc[nH]c(=O)c2[nH]1: -5.65
Cc1ccc([S+](c2ccccc2)c2cc(C)ccc2C)cc1.O=C(OC(C(=O)[O-])C(OC(=O)c1ccccc1)C(=O)O)c1ccccc1 (centres unmarked): -151.85
CN(C)CCCCN1CCc2c(n(C)c3ccccc23)C1=O.Cl: -30.45

Q) Which measured MEAN CpLDH INHIBITION (%) value corresponds to Cc1cc2nc(C=C(C(F)(F)F)C(F)(F)F)oc2cc1C ?
A) -49.77

Q) Follow-up entry: CC12CC(Br)(Br)C(=O)C3C1CCCC32
A) -23.30

Q) Follow-up entry: COC1OC(COCc2ccc(Cl)cc2)C(OCc2ccc(Cl)cc2)C1O (centres unmarked)
A) -0.60

Q) Follow-up entry: CC(C)(C)OC(=O)NC(Cc1ccccc1)C(=O)OCN1C(=O)C2C3C=CC(C2C1=O)C1C2C(=O)N(COC(=O)C(Cc4ccccc4)NC(=O)OC(C)(C)C)C(=O)C2C31 (centres unmarked)
A) -7.22

Q) Follow-up entry: O=C(Nc1ccc2c(c1)oc(=O)c1ccccc12)C(Cl)Cl
A) -25.00
